molecular target: vanilloid receptor (Rattus norvegicus, UniProt O35433); construct: DRG nerve cells from the primary culture of 2 days were equilibrated; endogenous in cells; experiment: 45Ca influx test in primary culture of neonatal rat DRG neurons, inhibition of the capsaicin response; conditions: DRG nerve cells; capsaicin 0.5 µM; 45Ca 10 µCi/ml; 10 mins at room temperature; read-out: Antagonist Calcium Uptake Test (IC50)
Sequence (O35433 whole entry): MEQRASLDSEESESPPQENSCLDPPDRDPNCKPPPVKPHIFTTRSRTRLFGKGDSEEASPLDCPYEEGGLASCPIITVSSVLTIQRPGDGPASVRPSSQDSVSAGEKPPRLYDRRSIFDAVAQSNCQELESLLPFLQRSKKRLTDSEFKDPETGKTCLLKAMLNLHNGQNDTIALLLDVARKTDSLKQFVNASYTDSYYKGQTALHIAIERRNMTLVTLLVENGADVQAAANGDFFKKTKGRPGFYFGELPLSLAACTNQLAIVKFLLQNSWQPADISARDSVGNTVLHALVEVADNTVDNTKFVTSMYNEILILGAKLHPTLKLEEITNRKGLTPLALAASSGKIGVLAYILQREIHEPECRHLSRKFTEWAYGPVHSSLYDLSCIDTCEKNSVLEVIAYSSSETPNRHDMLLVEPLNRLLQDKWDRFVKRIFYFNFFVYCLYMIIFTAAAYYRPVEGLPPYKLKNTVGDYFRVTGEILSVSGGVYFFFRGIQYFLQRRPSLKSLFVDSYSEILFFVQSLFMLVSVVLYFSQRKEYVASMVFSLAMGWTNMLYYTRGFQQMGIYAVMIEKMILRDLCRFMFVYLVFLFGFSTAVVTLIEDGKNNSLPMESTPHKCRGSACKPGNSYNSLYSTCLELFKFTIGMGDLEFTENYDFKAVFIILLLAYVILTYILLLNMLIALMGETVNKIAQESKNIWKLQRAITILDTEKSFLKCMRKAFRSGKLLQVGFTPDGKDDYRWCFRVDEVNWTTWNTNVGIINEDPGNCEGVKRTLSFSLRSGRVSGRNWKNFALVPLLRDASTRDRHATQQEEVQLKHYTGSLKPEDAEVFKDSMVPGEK
MEASURE: IC50 (nM)
Give the number; nM is assumed, so skip it.

INSERT INTO results (molecule, measurement_unit, measured_result) VALUES
  ('C=Cc1cc(CNC(=S)NCc2ccc(C(C)(C)C)cc2)cc(C(F)(F)F)c1NS(C)(=O)=O', 'nM', 330),
  ('C=Cc1cc(CNC(=S)NCc2ccc(C(C)(C)C)cc2)ccc1NS(C)(=O)=O', 'nM', 54),
  ('C=Cc1cc(CNC(=S)NCc2ccc(C(C)(C)C)cc2)cc(C)c1NS(C)(=O)=O', 'nM', 190),
  ('C=Cc1cc(CNC(=S)NCc2ccc(C(C)(C)C)cc2)cc(F)c1NS(C)(=O)=O', 'nM', 35);

// query What value of measured IC50 is listed for C=Cc1cc(C(C)NC(=S)NCc2ccc(C(C)(C)C)cc2)cc(F)c1NS(C)(=O)=O (stereo not drawn) ?
// result 120

// query What value of measured IC50 is listed for C=Cc1cc(CNC(=S)NCc2ccc(C(C)(C)C)cc2)cc(Cl)c1NS(C)(=O)=O ?
// result 93

All figures here come from patent EP1862454A1.
